# Target: hSARM1 (Homo sapiens)
# Construct: This assay makes use of full length SARM1, which encompasses the ARM, SAM and TIR domains; made in house; host or cells: NRK1-HEK293T cells (transient transfection; cleared lysate used as enzyme)
# Sequence (Q6SZW1 28-724): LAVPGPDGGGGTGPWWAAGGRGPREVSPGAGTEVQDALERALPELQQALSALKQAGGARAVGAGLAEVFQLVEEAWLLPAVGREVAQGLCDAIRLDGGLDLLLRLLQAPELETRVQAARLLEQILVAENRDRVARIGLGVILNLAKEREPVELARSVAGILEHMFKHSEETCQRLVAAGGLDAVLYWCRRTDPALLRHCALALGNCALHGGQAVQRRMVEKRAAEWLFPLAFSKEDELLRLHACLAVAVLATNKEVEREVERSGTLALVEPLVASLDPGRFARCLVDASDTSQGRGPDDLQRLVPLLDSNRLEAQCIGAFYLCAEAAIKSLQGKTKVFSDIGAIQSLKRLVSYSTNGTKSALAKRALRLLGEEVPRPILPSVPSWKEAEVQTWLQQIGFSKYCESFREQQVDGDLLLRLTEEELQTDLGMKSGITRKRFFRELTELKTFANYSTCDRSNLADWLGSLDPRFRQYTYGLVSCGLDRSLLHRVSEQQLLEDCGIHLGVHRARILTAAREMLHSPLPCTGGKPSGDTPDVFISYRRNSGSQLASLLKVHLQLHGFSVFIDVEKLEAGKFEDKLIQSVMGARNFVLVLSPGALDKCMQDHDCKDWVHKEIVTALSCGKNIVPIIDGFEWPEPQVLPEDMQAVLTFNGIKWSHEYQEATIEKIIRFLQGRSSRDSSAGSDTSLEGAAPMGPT
# Measurement protocol: ARM-SAM-TIR SARM1 IC50 Assay (NADase activity, NAD+ cleavage, RapidFire MS)
# Format: biochemical
# Assay setup: ARM-SAM-TIR lysate 5 μg/mL, 2 hrs. pre-incubation with compound, 5 μM NAD+, 2 hrs. incubation
Reported values of IC50 for individual entries

Examples from the recorded data:
[[record]]
compound_structure_string = "NC(=O)c1c(-c2ccncc2)n[nH]c1NC(=O)CCc1ccc(F)nc1"
test_value = "501 to 1000 nM"

[[record]]
compound_structure_string = "O=C(CCc1ccc(Cl)cc1)Nc1[nH]nc2c1c(=O)[nH]c1cnccc12"
test_value = "< 50 nM"

[[record]]
compound_structure_string = "O=C(CCc1cnc(Cl)c(F)c1)Nc1[nH]nc2c1c(=O)[nH]c1cnccc12"
test_value = "51 to 100 nM"

[[record]]
compound_structure_string = "NC(=O)c1c(-c2ccncc2)n[nH]c1NC(=O)CCc1ccc(C(F)(F)F)cc1"
test_value = "101 to 500 nM"

[[record]]
compound_structure_string = "O=C1NCN(C(=O)CCc2ccc(Cl)c(F)c2)c2[nH]nc(-c3ccncc3)c21"
test_value = "101 to 500 nM"

[[record]]
compound_structure_string = "Cc1cnncc1-c1n[nH]c(NC(=O)CCc2ccc(F)nc2)c1C(N)=O"
test_value = "> 1000 nM"

[[record]]
compound_structure_string = "NC(=O)c1c(-c2ccncc2)n[nH]c1NC(=O)CCc1cc(F)cc(F)c1"
test_value = "501 to 1000 nM"

[[record]]
compound_structure_string = "NC(=O)c1c(-c2ccncc2)n[nH]c1NC(=O)CCc1ccc(Cl)cc1"
test_value = "< 50 nM"


For reference, reported IC50 for NC(=O)c1c(-c2ccnnc2)n[nH]c1NC(=O)CCc1cnc(Cl)c(F)c1 stands at 101 to 500 nM

For reference, reported IC50 for O=C1NCN(C(=O)CCc2ccc(Cl)nc2)c2[nH]nc(-c3ccncc3)c21 stands at > 1000 nM

For reference, reported IC50 for NC(=O)c1c(-c2ccnnc2)n[nH]c1NC(=O)CCc1ccc(F)nc1 stands at > 1000 nM
